Data provenance is the RNAGym collection of RNA variant scans (doi:10.1126/science.aae0568).

Let's look at some variants and their measured yeast fitness.
B1: tRNA (parent)
chain: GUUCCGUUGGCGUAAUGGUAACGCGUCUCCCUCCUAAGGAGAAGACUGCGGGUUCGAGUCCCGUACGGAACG

Variants of: B1
protocol summary: yeast fitness relative to wild type (ratio to wild type); higher = fitter; tRNA-Arg(CCU), competitive growth, 37 C, YPD
Fewer inactive variants are shown than the library holds.
Respond with the number and no other words.

Consider the variant shown here: C4U A45G What is its recorded yeast fitness?
0.856

I would be grateful if you could share the reported yeast fitness for C34G C60G C62U .
0.65

State the recorded yeast fitness for this entry: A20G C27U U28G
0.565

Record request: yeast fitness value, item C34U A45U
0.686

Given the entry C5U U47C , report its measured yeast fitness.
0.96

Would you mind telling me what yeast fitness value was observed for U32A G63A ?
0.748

So what's the measured yeast fitness for this one? A43U C49G C55G
0.988

Entry A14U U64C A65G : reported yeast fitness = ?
0.567

Endpoint output: yeast fitness of C29A C49A . Value?
0.506

Could you share which yeast fitness value was measured for C4U G10C A14C C27G ?
0.546

Would you mind telling me what yeast fitness value was observed for U53A A57C ?
0.623

Requested read-out: yeast fitness. Entry: G25C C31U A69U
0.77

Returns the measured yeast fitness for the input variant. Input: U8C G12C C55U A70C
0.542
